Ref: ChEMBL document CHEMBL5143522

- measurement_target: Dual specificity tyrosine-phosphorylation-regulated kinase 1B (Homo sapiens) (UniProt Q9Y463)
- Sequence (Q9Y463 whole entry, looked up): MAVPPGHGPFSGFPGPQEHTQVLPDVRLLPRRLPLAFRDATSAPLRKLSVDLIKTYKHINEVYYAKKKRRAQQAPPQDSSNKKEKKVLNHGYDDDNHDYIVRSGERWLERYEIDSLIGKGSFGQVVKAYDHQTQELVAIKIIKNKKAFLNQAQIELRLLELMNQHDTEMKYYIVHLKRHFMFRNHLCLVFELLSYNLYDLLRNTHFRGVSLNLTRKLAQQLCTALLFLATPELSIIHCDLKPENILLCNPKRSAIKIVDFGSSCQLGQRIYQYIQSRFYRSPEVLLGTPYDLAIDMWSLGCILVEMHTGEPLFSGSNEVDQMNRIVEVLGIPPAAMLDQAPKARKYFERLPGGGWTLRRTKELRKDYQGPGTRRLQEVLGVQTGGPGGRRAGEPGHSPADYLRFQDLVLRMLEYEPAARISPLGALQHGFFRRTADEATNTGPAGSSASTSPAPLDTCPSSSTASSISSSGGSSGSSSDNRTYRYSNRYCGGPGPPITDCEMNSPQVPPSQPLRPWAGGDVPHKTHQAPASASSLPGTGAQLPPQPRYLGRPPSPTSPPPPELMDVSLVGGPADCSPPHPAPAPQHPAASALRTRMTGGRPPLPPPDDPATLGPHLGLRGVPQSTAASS
- experimental_details: Inhibition of human recombinant DYRK1B at 1 uM using KKISGRLSPIMTEQ as substrate incubated in presence of ATP relative to control
measured_property: inhibition (%)
Write it as a number; the unit % goes unstated.

Answered cases to consult:
## Task Please list inhibition recorded for the compound "O=C(Nc1ccc(NC(=O)c2cccc(Br)c2)cc1)Nc1nc2ccc(O)cc2s1"
## Result 13

## Task Please list inhibition recorded for the compound "O=C(Nc1ccc(NC(=O)c2cccc(C(F)(F)F)c2)cc1)Nc1nc2ccc(O)cc2s1"
## Result 14

## Task Please give the documented inhibition of "O=C(Nc1ccc(NC(=O)C2CC2)cc1)Nc1nc2ccc(O)cc2s1"
## Result 29

## Task Report inhibition, nothing else, for this compound: "O=C(Nc1ccc(NC(=O)c2ccccc2F)cc1)Nc1nc2ccc(O)cc2s1"
## Result 17

Switching to the query record.
## Task Supply reported inhibition belonging to this compound: "O=C(Nc1ccc(NC(=O)c2cccc(O)c2)cc1)Nc1nc2ccc(O)cc2s1"
## Result 46
